// provenance: patent US20240350489A1

- test: Levels of LOU064 in mouse tissues (blood, brain, CSF)
- Assay type: in vivo
- testContext: C57BL/6, mouse, whole blood, oral; 30 mg/kg p.o. b.i.d., 1 h; read-out: Levels of LOU064, Blood
- Method: The compound levels in total brain homogenate are very low and mainly detectable at the early timepoint. Similarly, the levels in cerebrospinal fluid (CSF) are low. Blood, brain and CSF levels of LOU064 after oral dosing of 3 and 30 mg/kg b.i.d. The LLOQ were 0.2 nM in blood, […] in brain homogenate and 0.5 nM in CSF. Shown are averages ±SD from 4 animals for the 1 h timepoints and from 3 animals for the 5 and 8 h timepoints. […]
attributeMeasured: concentration at 1 h (nM)
Numbers only, in nM.

Challenge: Please report the recorded concentration at 1 h for C=CC(=O)N(C)CCOc1c(N)ncnc1-c1cc(F)cc(NC(=O)c2ccc(C3CC3)cc2F)c1C .
Response given: 371

----------
- test: Levels of LOU064 in mouse tissues (blood, brain, CSF)
- Type: in vivo
- testContext: C57BL/6, mouse, CSF, oral; 30 mg/kg p.o. b.i.d., 8 h; read-out: Levels of LOU064, CSF
attributeMeasured: concentration at 8 h

Challenge: Name the recorded concentration at 8 h for C=CC(=O)N(C)CCOc1c(N)ncnc1-c1cc(F)cc(NC(=O)c2ccc(C3CC3)cc2F)c1C .
Response given: < 0.5 nM

----------
- test: Levels of LOU064 in mouse tissues (blood, brain, CSF)
- Assay type: in vivo
- testContext: C57BL/6, mouse, CSF, oral; 30 mg/kg p.o. b.i.d., 5 h; one animal of three above LLOQ; read-out: Levels of LOU064, CSF
attributeMeasured: concentration at 5 h

Challenge: Give the measured concentration at 5 h of C=CC(=O)N(C)CCOc1c(N)ncnc1-c1cc(F)cc(NC(=O)c2ccc(C3CC3)cc2F)c1C [LOU064] .
Response given: 0.5 nM

----------
- test: Levels of LOU064 in mouse tissues (blood, brain, CSF)
- Type: in vivo
- testContext: C57BL/6, mouse, CSF, oral; 3 mg/kg p.o. b.i.d., 5 h; one animal of three above LLOQ; read-out: Levels of LOU064, CSF
attributeMeasured: concentration at 5 h
Mention the unit after the number when you answer.

Challenge: Sample C=CC(=O)N(C)CCOc1c(N)ncnc1-c1cc(F)cc(NC(=O)c2ccc(C3CC3)cc2F)c1C [LOU064] — what was its concentration at 5 h?
Response given: 0.5 nM

----------
- test: Levels of LOU064 in mouse tissues (blood, brain, CSF)
- Assay type: in vivo
- testContext: C57BL/6, mouse, whole blood, oral; 3 mg/kg p.o. b.i.d., 5 h; read-out: Levels of LOU064, Blood
attributeMeasured: concentration at 5 h (nM)
One number for each entry, in nM.

Challenge: Would you mind telling me what concentration at 5 h value was observed for C=CC(=O)N(C)CCOc1c(N)ncnc1-c1cc(F)cc(NC(=O)c2ccc(C3CC3)cc2F)c1C ?
Response given: 0.4

----------
- test: Levels of LOU064 in mouse tissues (blood, brain, CSF)
- Format: in vivo
- testContext: C57BL/6, mouse, whole blood, oral; 30 mg/kg p.o. b.i.d., 8 h; read-out: Levels of LOU064, Blood
- Description: The compound levels in total brain homogenate are very low and mainly detectable at the early timepoint. Similarly, the levels in cerebrospinal fluid (CSF) are low. Blood, brain and CSF levels of LOU064 after oral dosing of 3 and 30 mg/kg b.i.d. The LLOQ were 0.2 nM in blood, […] in brain homogenate and 0.5 nM in CSF. Shown are averages ±SD from 4 animals for the 1 h timepoints and from 3 animals for the 5 and 8 h timepoints. […]
attributeMeasured: concentration at 8 h (nM)
Answers are plain numbers, in nM.

Challenge: For the molecule C=CC(=O)N(C)CCOc1c(N)ncnc1-c1cc(F)cc(NC(=O)c2ccc(C3CC3)cc2F)c1C , what concentration at 8 h is on record?
Response given: 3.4
